Sourced from ChEMBL document CHEMBL5291721

- tested on: Voltage-gated inwardly rectifying potassium channel KCNH2 (Homo sapiens); note: assay procedure not described here
- Sequence (Q12809 whole entry): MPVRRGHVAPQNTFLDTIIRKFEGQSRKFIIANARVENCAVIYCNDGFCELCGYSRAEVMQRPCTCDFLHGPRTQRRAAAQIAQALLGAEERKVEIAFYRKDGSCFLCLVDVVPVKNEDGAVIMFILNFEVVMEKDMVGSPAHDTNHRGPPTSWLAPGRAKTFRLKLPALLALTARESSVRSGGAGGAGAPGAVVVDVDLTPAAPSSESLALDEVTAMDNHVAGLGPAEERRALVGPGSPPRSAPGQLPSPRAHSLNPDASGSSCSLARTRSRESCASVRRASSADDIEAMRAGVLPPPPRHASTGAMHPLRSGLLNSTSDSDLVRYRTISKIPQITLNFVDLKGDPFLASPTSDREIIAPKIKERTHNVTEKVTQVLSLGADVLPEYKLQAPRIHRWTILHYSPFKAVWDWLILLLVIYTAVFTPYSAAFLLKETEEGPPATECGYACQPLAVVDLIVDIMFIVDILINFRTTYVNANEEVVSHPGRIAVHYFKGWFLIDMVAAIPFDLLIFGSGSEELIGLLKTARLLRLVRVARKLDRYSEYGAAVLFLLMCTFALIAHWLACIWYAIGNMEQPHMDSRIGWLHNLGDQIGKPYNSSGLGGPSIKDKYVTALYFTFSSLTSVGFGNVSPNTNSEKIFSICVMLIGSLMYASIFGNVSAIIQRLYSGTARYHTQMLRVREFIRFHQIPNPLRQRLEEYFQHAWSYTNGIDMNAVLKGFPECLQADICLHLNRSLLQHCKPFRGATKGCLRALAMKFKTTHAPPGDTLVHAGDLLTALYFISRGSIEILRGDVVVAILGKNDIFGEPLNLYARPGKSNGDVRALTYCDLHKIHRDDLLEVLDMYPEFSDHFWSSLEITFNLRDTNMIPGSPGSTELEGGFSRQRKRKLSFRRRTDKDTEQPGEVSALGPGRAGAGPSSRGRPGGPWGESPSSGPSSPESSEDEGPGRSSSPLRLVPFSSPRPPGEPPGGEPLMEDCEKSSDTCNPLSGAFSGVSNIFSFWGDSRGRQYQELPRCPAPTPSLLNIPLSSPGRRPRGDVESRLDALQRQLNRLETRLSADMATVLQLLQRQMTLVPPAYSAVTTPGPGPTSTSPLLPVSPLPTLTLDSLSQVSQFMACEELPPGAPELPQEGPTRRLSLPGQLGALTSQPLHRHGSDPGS
- Assay type: functional
- settings: read-out: AC50; note: assay procedure not described here
I'd be grateful if you could share measured AC50 for these entries.

Go through the items and report each one's AC50.
1. O=C1CN=C(c2ccccc2)c2c(sc3c2CCCC3)N1
2. CN1CCC2=C(C1)C(c1ccccc1)c1ccccc12 (centres undefined)
3. CCOC(=O)[C@H](CCc1ccccc1)N[C@H]1CCCN2CCC[C@@H](C(=O)O)N2C1=O

a:
1: > 30 µM; 2: > 30 µM; 3: > 30 µM

----------
- tested on: Alpha-1A adrenergic receptor (Homo sapiens, UniProt P35348); note: assay procedure not described here
- Sequence (P35348 whole entry): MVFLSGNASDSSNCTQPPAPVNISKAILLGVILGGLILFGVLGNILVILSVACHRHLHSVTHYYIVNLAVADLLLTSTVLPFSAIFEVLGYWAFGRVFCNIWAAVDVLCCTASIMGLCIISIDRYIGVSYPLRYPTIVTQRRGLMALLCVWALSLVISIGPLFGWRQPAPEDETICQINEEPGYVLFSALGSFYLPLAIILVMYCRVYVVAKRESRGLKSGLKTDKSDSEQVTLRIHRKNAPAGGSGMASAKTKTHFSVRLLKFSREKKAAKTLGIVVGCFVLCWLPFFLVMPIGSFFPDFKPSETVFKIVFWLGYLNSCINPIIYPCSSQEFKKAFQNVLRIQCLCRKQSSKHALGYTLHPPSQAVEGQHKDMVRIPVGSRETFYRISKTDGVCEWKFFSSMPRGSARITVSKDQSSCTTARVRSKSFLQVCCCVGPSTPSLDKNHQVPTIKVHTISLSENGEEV
test readout: AC50

molecule	test readout	result
CC(C)C(=O)OCC(=O)[C@@]12O[C@H](C3CCCCC3)O[C@@H]1C[C@H]1[C@@H]3CCC4=CC(=O)C=C[C@]4(C)[C@H]3[C@@H](O)C[C@@]12C [CICLESONIDE]	AC50	> 10 µM

Please look at the items below and tell me AC50 for each one, in order.
1. COC(=O)C1=C(C)NC(C)=C(C(=O)OCC(C)C)C1c1ccccc1[N+](=O)[O-] (stereo not drawn) [NISOLDIPINE]
2. NC(N)=Nc1nc(CSCCC(N)=NS(N)(=O)=O)cs1 [FAMOTIDINE]

a:
["16 µM", "> 10 µM"]

// input: 3 molecules below; output: AC50 for each
1. CN1CC(=O)N2[C@H](c3ccc4c(c3)OCO4)c3[nH]c4ccccc4c3C[C@@H]2C1=O
2. CC(C(=O)O)c1ccc(C(=O)c2cccs2)cc1 (stereo not drawn) [SUPROFEN]
3. CCc1ccc(CCOc2ccc(CC3SC(=O)NC3=O)cc2)nc1 (stereo not drawn) [PIOGLITAZONE]

a:
1: > 10 µM; 2: > 10 µM; 3: > 10 µM

I need AC50 for every entry listed below, if you could help.
1. CCc1nn(CCCN2CCN(c3cccc(Cl)c3)CC2)c(=O)n1CCOc1ccccc1 [NEFAZODONE]
2. CN(C)CCCN1c2ccccc2CCc2ccc(Cl)cc21 [CLOMIPRAMINE]

a:
1. 0.833 µM
2. 0.0445 µM

----------
- tested on: UniProt:P18089
- Sequence (P18089 whole entry): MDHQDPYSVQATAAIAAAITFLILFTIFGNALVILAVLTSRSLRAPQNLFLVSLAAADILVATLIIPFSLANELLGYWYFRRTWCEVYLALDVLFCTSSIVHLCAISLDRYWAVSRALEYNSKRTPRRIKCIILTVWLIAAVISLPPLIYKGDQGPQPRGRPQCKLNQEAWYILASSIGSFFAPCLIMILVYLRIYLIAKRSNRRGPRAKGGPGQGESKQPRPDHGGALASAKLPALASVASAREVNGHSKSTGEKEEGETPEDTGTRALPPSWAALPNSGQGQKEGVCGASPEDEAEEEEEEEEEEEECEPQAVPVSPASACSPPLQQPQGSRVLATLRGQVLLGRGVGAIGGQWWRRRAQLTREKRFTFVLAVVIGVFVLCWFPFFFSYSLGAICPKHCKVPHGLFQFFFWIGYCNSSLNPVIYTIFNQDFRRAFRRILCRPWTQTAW
For each record, write down the corresponding AC50.

molecule	tested on	test readout	result
CCC(C(=O)O)c1ccc(CC(C)C)cc1 (stereo not given) [BUTIBUFEN]	UniProt:P18089	AC50	> 30 µM

Record AC50 per entry; entries follow.
1. CCCCCCCCCCCC[N+](C)(C)CCOc1ccccc1 [DOMIPHEN]
2. CCCS(=O)(=O)Nc1ccc(F)c(C(=O)c2c[nH]c3ncc(-c4ccc(Cl)cc4)cc23)c1F [VEMURAFENIB]

a:
1: 3.8 µM; 2: > 30 µM
